method-description: Pharmacokinetics in mice, single IV or oral administration
Format: in vivo, mouse
particulars: blood, 5 mg/kg; mouse, IV, 5 mpk
reported-metric: C0 (ng/mL)
Write the answer as a number in ng/mL, unit excluded.

*Q* # C0 lookup, item C[C@@H](Nc1ncnc2ccc(-c3cnc(Cl)c(NS(C)(=O)=O)c3)cc12)c1ccccc1 [Compound 2R]
*A* 25700

----------
Listed here are molecules together with their documented inhibition at 0.1 µM.
assayed-target: DNA-PK (Homo sapiens (Human))
method-description: Z'-LYTE / Adapta kinase assay, DNA-PK
Type: biochemical
particulars: read-out: DNA-PK % Inh. @ 100 nM

| molecule | value-measured |
| --- | --- |
| C[C@@H](Nc1ncnc2ccc(-c3cnc(Cl)c(NS(C)(=O)=O)c3)cc12)c1ccccc1 [Compound 2R] | > 90% |
| CC(Nc1c(C#N)cnc2ccc(-c3cc(F)c(O)c(F)c3)cc12)c1ccccc1 (stereo not drawn) [Compound 130] | < 10% |
| CC(Nc1ncnc2ccc(-c3cnc(N)c(C(=O)N(C)C)c3)cc12)c1ccccc1 (stereo not drawn) [Compound 36] | 10 to 80% |
| CC(Nc1c(C#N)cnc2ccc(-c3cnc4[nH]ccc4c3)cc12)c1ccccc1 (stereo not drawn) [Compound 55] | 10 to 80% |
| C[C@@H](Nc1ncnc2ccc(-c3ccc4c(c3)C(=O)OC4)cc12)c1ccccc1 [Compound 136] | < 10% |

*Q* # inhibition at 0.1 µM lookup, item COc1cc(-c2ccc3ncc(C#N)c(NC(C)c4ccccc4)c3c2)cnc1OC (stereo not drawn) [Compound 68]
*A* 10 to 80%

*Q* # inhibition at 0.1 µM lookup, item CC(Nc1c(C#N)cnc2ccc(-c3cnc4cnn(C)c4c3)cc12)c1ccccc1 (stereo not drawn) [Compound 73]
*A* < 10%

*Q* # inhibition at 0.1 µM lookup, item CC(Nc1c(C#N)cnc2ccc(-c3cnc4[nH]ncc4c3)cc12)c1ccccc1 (stereo not drawn) [Compound 54]
*A* 80 to 90%

*Q* # inhibition at 0.1 µM lookup, item C[C@H](Nc1ncnc2ccc(-c3cnc(Cl)c(NS(C)(=O)=O)c3)cc12)c1ccccc1 [Compound 2S]
*A* > 90%

*Q* # inhibition at 0.1 µM lookup, item CC(Nc1c(C#N)cnc2ccc(-c3cccc(-c4n[nH]c(=O)o4)c3)cc12)c1ccccc1 (stereo not drawn) [Compound 127]
*A* 10 to 80%

*Q* # inhibition at 0.1 µM lookup, item C[C@@H](Nc1c(C#N)cnc2ccc(-c3cnc4[nH]ncc4c3)cc12)c1ccccc1 [Compound 54R]
*A* 10 to 80%

*Q* # inhibition at 0.1 µM lookup, item OCC(Nc1ncnc2ccc(-c3cnc4cnccn34)cc12)c1ccccc1 (stereo not drawn) [Compound 140]
*A* < 10%

*Q* # inhibition at 0.1 µM lookup, item C[C@H](Nc1ncnc2ccc(-c3cnc(Cl)c(NS(C)(=O)=O)c3)cc12)c1ccc(F)cc1 [Compound 111S]
*A* > 90%

*Q* # inhibition at 0.1 µM lookup, item CC(Nc1c(C#N)cnc2ccc(-c3ccc4oc(N)nc4c3)cc12)c1ccccc1 (stereo not drawn) [Compound 87]
*A* < 10%

*Q* # inhibition at 0.1 µM lookup, item C[C@@H](Nc1ncnc2ccc(-c3cncc(C(=O)N(C)O)c3)cc12)c1ccccc1 [Compound 134]
*A* < 10%

*Q* # inhibition at 0.1 µM lookup, item CS(=O)(=O)Nc1cc(-c2ccc3ncc(C#N)c(NC4c5ccccc5CC4O)c3c2)cnc1Cl (stereo not drawn) [Compound 103]
*A* > 90%

*Q* # inhibition at 0.1 µM lookup, item CC(Nc1c(C#N)cnc2ccc(-c3cnc(Cl)c(NS(C)(=O)=O)c3)cc12)c1ccccc1 (stereo not drawn) [Compound 48]
*A* > 90%

*Q* # inhibition at 0.1 µM lookup, item Cc1nc2cc(-c3ccc4ncnc(NC(C)c5ccccc5)c4c3)cnc2[nH]1 (stereo not drawn) [Compound 10]
*A* 10 to 80%

*Q* # inhibition at 0.1 µM lookup, item CC(Nc1ncnc2ccc(-c3ccc4oc(N)nc4c3)cc12)c1ccccc1 (stereo not drawn) [Compound 41]
*A* < 10%

*Q* # inhibition at 0.1 µM lookup, item C[C@@H](Nc1ncnc2ccc(-c3cccc(-c4nnc[nH]4)c3)cc12)c1ccccc1 [Compound 137]
*A* < 10%

*Q* # inhibition at 0.1 µM lookup, item CC(Nc1ncnc2ccc(-c3cnc(N)nc3)cc12)c1ccc(F)cc1 (stereo not drawn) [Compound 121]
*A* 10 to 80%

*Q* # inhibition at 0.1 µM lookup, item CC(Nc1ncnc2ccc(-c3cnc(N)nc3)cc12)c1ccccc1 (stereo not drawn) [Compound 7]
*A* 10 to 80%

These measurements were taken from patent US11673876B2.
